All figures here come from PubChem BioAssay.

- Test target: Concanavalin-A (Canavalia ensiformis) (UniProt P02866)
- Sequence (P02866 whole entry, looked up): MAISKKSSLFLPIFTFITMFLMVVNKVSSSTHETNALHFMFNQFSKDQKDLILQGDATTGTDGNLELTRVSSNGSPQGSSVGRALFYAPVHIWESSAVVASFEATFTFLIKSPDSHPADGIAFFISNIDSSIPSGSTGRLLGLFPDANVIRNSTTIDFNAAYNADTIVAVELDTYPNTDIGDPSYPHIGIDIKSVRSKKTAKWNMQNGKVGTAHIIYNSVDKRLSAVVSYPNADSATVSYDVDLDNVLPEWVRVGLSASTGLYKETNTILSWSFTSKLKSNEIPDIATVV
- Protocol: compounds binding concanavalin A lectin – biochemical, small-molecule microarray, Alexa647 label, 635 nm, artefact control for SMM control protein annotation, primary screen (AID 1127);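 also: z combines 667 nm emission intensity with signal-to-noise across three replicate slides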
- Condition context: ConA-A647 binding fluorescence, higher = more signal
Answer each item with its documented composite z-score.

O=C1C[C@@](C(=O)O)(c2ccc([N+](=O)[O-])cc2)[C@@H](c2ccc(CO)cc2)N1CC12CC3CC(CC(C3)C1)C2	0.687

Parameter requested: composite z-score. Apply to each item below.
1. [N-]=[N+]=Nc1ccccc1[C@H]1OC(c2ccc(OCCCO)cc2)=N[C@@]1(Cc1ccccc1)C(=O)NCc1ccccc1
2. CCCCC(=C=CC[C@H](O)c1cccc(OCCO)c1)C[C@H](O)COCc1ccccc1

Out:
1.02
0.0194

Entry C=C(COC)C(=O)CC[C@H](OC(=O)c1ccccc1-c1ccccc1C(=O)O)c1ccc(CO)o1 — recorded composite z-score = 0.332

====

- Protocol: optical density change of DRC41 E. coli – strain DRC41, OD650, 24 h, E. coli filamentation project, primary screen (AID 1093);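 also: MC1000 strain lacking acrAB efflux and sulA so SOS filamentation is blocked; test concentration not given here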
- Condition context: E. coli DRC41 growth, higher = more signal, called active from +8 up or from −8 down
Activity calls are given as the source filed them.
Answer each item with its documented z-score.

Sample records with z-score:
COC(=O)[C@H]1N=C(c2ccc(OCCCO)cc2)O[C@H]1c1ccccc1CN=[N+]=[N-]	0.887 (inactive)
Cc1ccc(F)cc1S(=O)(=O)N[C@@H]1CCN(C(=O)c2ccc(OC(C)C)cc2)C1	0.845 (inactive)
O=C1OCCC=C[C@H]2OC34C=CCN(Cn5nnc6ccccc65)C(=O)[C@H]3N(CCCCCO)C(=O)[C@@H]4C12 (some centres not stated)	0.141 (inactive)

Parameter requested: z-score. Apply to each item below.
1. COCCOC(=O)N1C(=O)[C@@]2(c3ccccc31)[C@H](c1ccccc1OCCO)N1[C@H](c3ccccc3)[C@H](c3ccccc3)OC(=O)[C@H]1[C@@H]2C(=O)N1CCc2cc(OC)c(OC)cc2C1
2. CCOC(=O)C1=CCC(c2cccc(Cl)c2)O1 (configuration not stated)
3. C[C@H]1NC(=O)C([C@@H](C)OCc2ccccc2)NC(=O)[C@@]23C(=O)N[C@@H](Cc4ccccc4)C2[C@H](C)[C@@]2(C)O[C@H]2C3/C=C/CC/C=C/CNC1=O (some centres not stated)
4. C=C(COC)C(=O)CC[C@H](OC(=O)c1ccccc1-c1ccccc1C(=O)O)c1ccc(OCCO)cc1

Out:
1. 0.344 (inactive)
2. 0.558 (inactive)
3. 2.13 (inactive)
4. 0.802 (inactive)

====

- System: Inhibin beta A chain (activin A)
- Protocol: small molecules binding activin A – biochemical, small-molecule microarray, 635 nm fluorescence scan, primary screen (AID 1107);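 also: mouse activin A protein probed at 4.33 µg/mL on printed slides; score merges bound-protein fluorescence near 667 nm with spot signal-to-noise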
- Condition context: INHBA, higher = more signal
Classification field: enter Met for composite z-score values not below 0.5, Not met for values below it.

CN(C)C(=O)[C@@]1(CCC(=O)OC(C)(C)C)COC(c2ccc(OCCCO)cc2)=N1	Not met

In: // inclusive: composite z-score at least 0.5? input: CN(C)C(=O)[C@]1(Cc2ccccc2N=[N+]=[N-])N=C(c2ccc(OCCCO)cc2)O[C@@H]1c1ccccc1CN=[N+]=[N-]
Out: Met

In: // inclusive: composite z-score at least 0.5? input: COCC1=C([C@H](O)CCc2ccccc2)[C@H](CO)[C@@H]2C(=O)N(C)C(=O)[C@@H]2C1
Out: Not met

In: // inclusive: composite z-score at least 0.5? input: Cc1ccccc1C(O)C1C=CC2C(=O)N(C)C(=O)C2N1Nc1ccc([N+](=O)[O-])cc1[N+](=O)[O-] (centres undefined)
Out: Met

In: // inclusive: composite z-score at least 0.5? input: Cc1cc(C)c(C(O)C2C=CC3C(=O)N(c4ccccc4)C(=O)C3N2Nc2ccc([N+](=O)[O-])cc2)c(C)c1 (centres undefined)
Out: Not met

In: // inclusive: composite z-score at least 0.5? input: COC(=O)[C@@]1(Cc2ccccc2)[C@H]2c3cc(C(=O)N(C)C)n(Cc4ccccn4)c3C[C@H]2CN1C(=O)c1ccccc1
Out: Not met

In: // inclusive: composite z-score at least 0.5? input: COC(=O)C(CC#Cc1ccc2c(c1)[C@]1(C(=O)N2)[C@H](c2ccccc2OCCO)N2[C@H](c3ccccc3)[C@H](c3ccccc3)OC(=O)[C@H]2[C@@H]1C(=O)Nc1nc2ccccc2s1)C(=O)OC
Out: Not met

In: // inclusive: composite z-score at least 0.5? input: COc1ccc([Si](C)(C)[C@@H]2[C@@H](CCO)O[C@]3(C(=O)N(Cc4ccccc4)c4ccc(N5CCCCC5=O)cc43)[C@H]2C)cc1
Out: Met

In: // inclusive: composite z-score at least 0.5? input: O=C1O[C@@H](c2ccccc2)[C@@H](c2ccccc2)N2[C@@H](c3ccc(O)cc3)[C@]3(C(=O)Nc4ccc(C#CC5=CCCCC5)cc43)[C@@H](C(=O)Nc3nc4ccccc4s3)[C@H]12
Out: Met

In: // inclusive: composite z-score at least 0.5? input: C[N+](C)(C)CCCCCCNC(=O)[C@@H]1C[C@@H]2C(=O)NCC(=O)N2[C@@H]1c1cccc(OCCO)c1
Out: Met
